- assay_system: human recombinant HDAC6 (Homo sapiens, UniProt Q9UBN7)
- Construct: purchased Calbiochem 382180
- Sequence (Q9UBN7 1-1215): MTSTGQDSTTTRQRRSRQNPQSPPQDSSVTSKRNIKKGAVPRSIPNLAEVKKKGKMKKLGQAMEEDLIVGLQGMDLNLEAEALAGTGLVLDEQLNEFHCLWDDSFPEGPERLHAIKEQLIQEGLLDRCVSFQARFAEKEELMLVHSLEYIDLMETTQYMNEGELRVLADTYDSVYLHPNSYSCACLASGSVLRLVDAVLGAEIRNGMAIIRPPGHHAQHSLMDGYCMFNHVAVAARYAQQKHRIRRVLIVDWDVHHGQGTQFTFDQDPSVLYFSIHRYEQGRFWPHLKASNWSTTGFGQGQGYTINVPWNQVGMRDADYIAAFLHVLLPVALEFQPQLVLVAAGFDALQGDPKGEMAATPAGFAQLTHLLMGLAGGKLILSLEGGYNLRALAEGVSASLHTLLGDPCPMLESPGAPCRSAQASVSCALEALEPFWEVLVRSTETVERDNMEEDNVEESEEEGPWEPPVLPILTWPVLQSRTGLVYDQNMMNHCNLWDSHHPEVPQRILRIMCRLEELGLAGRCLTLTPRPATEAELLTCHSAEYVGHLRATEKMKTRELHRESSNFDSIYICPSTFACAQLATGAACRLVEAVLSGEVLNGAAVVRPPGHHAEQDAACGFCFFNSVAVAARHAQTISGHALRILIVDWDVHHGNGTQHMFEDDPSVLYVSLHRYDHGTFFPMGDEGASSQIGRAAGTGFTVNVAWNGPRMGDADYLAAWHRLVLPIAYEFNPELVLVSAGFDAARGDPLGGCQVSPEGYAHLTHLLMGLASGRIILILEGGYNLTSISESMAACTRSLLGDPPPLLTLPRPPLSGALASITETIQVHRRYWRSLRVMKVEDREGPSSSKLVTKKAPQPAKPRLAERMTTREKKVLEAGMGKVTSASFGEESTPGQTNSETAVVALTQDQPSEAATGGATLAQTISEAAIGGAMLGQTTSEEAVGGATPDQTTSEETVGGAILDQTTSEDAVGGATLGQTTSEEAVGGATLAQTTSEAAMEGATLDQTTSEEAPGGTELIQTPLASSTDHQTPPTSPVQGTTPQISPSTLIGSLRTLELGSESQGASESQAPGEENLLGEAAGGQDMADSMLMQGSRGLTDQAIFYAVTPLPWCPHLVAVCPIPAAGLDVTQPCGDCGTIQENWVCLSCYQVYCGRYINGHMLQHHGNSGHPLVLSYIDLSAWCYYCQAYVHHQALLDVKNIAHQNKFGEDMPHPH
- experimental_protocol: HDAC6 enzyme activity inhibition assay (HDAC Fluorimetric Drug Discovery Kit)
- Assay type: biochemical
- experimental_parameters: human recombinant HDAC6, same protocol as HDAC1; read-out: HDAC6
readout_type: IC50 (nM)

O=C(NCCN1CCN(c2ccncc2)CC1)N(Cc1ccc(-c2nnc(C(F)F)o2)cc1F)c1ccccc1 [Compound 22009]    103

I = CC(=O)N1CCN(CCNC(=O)N(Cc2ccc(-c3nnc(C(F)F)o3)cc2F)c2ccccc2)CC1 [Compound 21995]
II = CCN1[C@H](C)CN(Cc2ccc(N(Cc3ccc(-c4nnc(C(F)F)o4)cc3F)C(=O)N3CCS(=O)(=O)CC3)cc2)C[C@@H]1C [Compound 21935]
III = CCN1CCC2(CC1)CN(C(=O)N(Cc1ccc(-c3nnc(C(F)F)o3)cc1F)c1ccccc1)C2 [Compound 21499]
[ask] Please rank these compounds by IC50 in descending order. Response field: labels, in requested order.
[reply] II, I, III

Cited source: patent US10717716B2
